tgt: NAD-dependent protein deacetylase sirtuin-1 (Homo sapiens)
Sequence (Q96EB6 whole entry): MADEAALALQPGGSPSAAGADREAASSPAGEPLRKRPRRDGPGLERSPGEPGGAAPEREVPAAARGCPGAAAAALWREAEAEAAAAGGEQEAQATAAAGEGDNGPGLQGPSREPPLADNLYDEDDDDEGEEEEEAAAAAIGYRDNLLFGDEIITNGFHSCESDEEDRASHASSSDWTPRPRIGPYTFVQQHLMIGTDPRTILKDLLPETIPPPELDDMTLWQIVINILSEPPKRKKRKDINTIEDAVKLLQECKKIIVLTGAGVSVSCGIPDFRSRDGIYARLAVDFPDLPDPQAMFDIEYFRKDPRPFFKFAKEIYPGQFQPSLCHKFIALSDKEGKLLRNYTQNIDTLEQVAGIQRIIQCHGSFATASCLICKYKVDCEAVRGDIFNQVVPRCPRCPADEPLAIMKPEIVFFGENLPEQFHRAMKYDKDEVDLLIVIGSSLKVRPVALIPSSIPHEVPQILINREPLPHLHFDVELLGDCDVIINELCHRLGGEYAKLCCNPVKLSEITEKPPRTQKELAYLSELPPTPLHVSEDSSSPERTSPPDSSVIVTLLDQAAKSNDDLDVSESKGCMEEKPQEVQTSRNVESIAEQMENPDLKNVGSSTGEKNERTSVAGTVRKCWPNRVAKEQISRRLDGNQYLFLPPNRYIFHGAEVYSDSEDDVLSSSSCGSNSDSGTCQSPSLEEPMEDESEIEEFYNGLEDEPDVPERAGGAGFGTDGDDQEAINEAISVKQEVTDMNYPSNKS
measurement-description: Inhibition of N-terminal hexa-His-tagged human SIRT1 (156 to 664 residues) expressed in Escherichia coli BL21 (DE3) assessed as deacetylation of Abz-labeled acetyl peptide using Abz-GVLKacAYNO2GY-NH2 peptide as substrate incubated for 30 mins in presence of NAD+ by fluorescence microplate reader assay
experimental-context: read-out: IC50
property-measured: IC50 (µM)
Give just the number in µM; leave the unit off.

# count of solved cases: 10
Need IC50 of O=C1OC(c2ccccc2)OC(=O)C1=Cc1ccc(O)c(Cl)c1 (configuration not stated) , thanks. 3.84

Could you do the same for Cc1cc(C=C2C(=O)OC(c3ccccc3)OC2=O)c(C)cc1O (configuration not stated) , please? 4.4

Could you do the same for CCc1cc(C=C2C(=O)OC(c3ccccc3)OC2=O)cc(CC)c1O (configuration not stated) , please? 3.1

Could you do the same for CC(C)(C)c1cc(C=C2C(=O)OC(c3ccccc3)OC2=O)cc(C(C)(C)C)c1O (configuration not stated) , please? 19

Could you do the same for CC1(c2ccccc2)OC(=O)C(=Cc2ccc(O)cc2)C(=O)O1 (configuration not stated) , please? 7.06

Could you do the same for COc1ccccc1C=C1C(=O)OC(C)(c2ccccc2)OC1=O (configuration not stated) , please? 14.4

Could you do the same for COc1cc(C=C2C(=O)OC(c3ccccc3)OC2=O)cc([N+](=O)[O-])c1O (configuration not stated) , please? 3.49

Could you do the same for O=C1OC(c2ccccc2)OC(=O)C1=Cc1ccc(O)c(OCc2ccccc2)c1 (configuration not stated) , please? 2.52

Could you do the same for Cc1cc(C=C2C(=O)OC(c3ccccc3)OC2=O)cc(C)c1O (configuration not stated) , please? 3.07

Could you do the same for COc1cc(C=C2C(=O)OC(c3ccccc3)OC2=O)cc(I)c1O (configuration not stated) , please? 0.89

Next:
Need IC50 of COc1cc(C=C2C(=O)OC(c3ccccc3)OC2=O)cc(OC)c1O (configuration not stated) , thanks. 11.9

Could you do the same for Nc1c(I)cc(C=C2C(=O)OC(c3ccccc3)OC2=O)cc1I (configuration not stated) , please? 10.2
